Target: Prostaglandin G/H synthase 1 (Ovis aries, UniProt P05979)
Sequence (P05979 whole entry): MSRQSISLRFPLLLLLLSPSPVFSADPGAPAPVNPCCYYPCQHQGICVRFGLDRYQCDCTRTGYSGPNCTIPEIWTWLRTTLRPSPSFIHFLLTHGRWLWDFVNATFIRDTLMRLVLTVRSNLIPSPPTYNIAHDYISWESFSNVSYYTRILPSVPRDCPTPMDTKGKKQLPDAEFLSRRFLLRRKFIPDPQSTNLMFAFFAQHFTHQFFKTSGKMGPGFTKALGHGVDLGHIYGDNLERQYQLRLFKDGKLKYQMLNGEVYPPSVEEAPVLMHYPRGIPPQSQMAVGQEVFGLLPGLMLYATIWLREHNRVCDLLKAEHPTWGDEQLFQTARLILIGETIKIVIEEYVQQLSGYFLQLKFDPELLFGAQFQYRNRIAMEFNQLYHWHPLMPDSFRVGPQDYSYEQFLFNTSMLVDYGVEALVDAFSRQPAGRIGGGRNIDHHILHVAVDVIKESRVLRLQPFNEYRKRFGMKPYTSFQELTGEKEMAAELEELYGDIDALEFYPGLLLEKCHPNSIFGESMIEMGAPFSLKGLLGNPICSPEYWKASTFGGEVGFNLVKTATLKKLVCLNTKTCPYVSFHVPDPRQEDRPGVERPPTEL
experimental_endpoint: pIC50
One number for each entry, as −log10 of the molar value.

**Query** What value of measured pIC50 is listed for COc1ccc(-n2nc(C(=O)NN)nc2-c2cc(OC)c(OC)c(OC)c2)cc1 ?
**Result** 4.40
